target: T1, human complement protein C5 (human, UniProt P01031 19-1676); assay: SPR (Biacore)
T1 construct: Native C5 is a two-chain protein made from one precursor; also called hC5; human C5
pKd: −log10 of the molar value.
property_name: pKd

>>> numeric_result("LCP0115 (VHH, llama anti-C5 VHH, tested as VHH-His fusion; not shown: His-tag) VHH: EVQLVESGGGLVQAGGSLRLSCAASGRTFSGILSPYAVGWFRQAPGKGREFVSTITSGGSAIYTDSVKGRFTLSRDNAKDTVYLQMNSLKPEDTAVYYCAVRTRRYGSNLGEVPQENEYGYWGQGTQVTVSS")
9.51
>>> numeric_result("LCP0146 (VHH, llama anti-C5 VHH, tested as VHH-His fusion; not shown: His-tag) VHH: EVQLVESGGGLVQAGGSLRLSCAASGRAFSDYAMAWFRQAPGKEREFVAGIGWSGGDTLYADSVRGRFTNSKDNAKNRMSLQMNSLKPEDTAVYYCAARQGQYIYSSMRSDSYDYWGQGTQVTVSS")
10.36
>>> numeric_result("LCP0143 (VHH, llama anti-C5 VHH, tested as VHH-His fusion; not shown: His-tag) VHH: EVQLVESGGGLVQAGGSLRLSCAAPEMGATINVMAWYRQAPGKQRELVARLPLDNNIDYGDFAKGRFTISRDITRNTVYLQMNNLKPDDTAVYYCNVLLSRQINGAYVHWGQGTQVTVSS")
10.09
>>> numeric_result("LCP0095 (VHH, llama anti-C5 VHH, tested as VHH-His fusion; not shown: His-tag) VHH: EVQLVESGGGLVQAGGSLRLSCTASGRTISTTVMAWFRQAPGKEREFVAADHWGDAGTVYADSVKGRFTISRDNAKNTVYLQMNYLKPEDTSVYYCAARPPTYVGTSRDSRAYDYWGQGTQVTVSS")
8.60

Reference for the values: patent US20250163138A1
